Biological target: KRAS G12C (GMPPNP-loaded) and cRAF (Ras-binding domain) interaction (Homo sapiens (Human), UniProt P01116, C118S/C51S/C80L/G12C)
Sequence (P01116 other isoform, or with tags, fused parts or gaps G12C/C51S/C80L/C118S): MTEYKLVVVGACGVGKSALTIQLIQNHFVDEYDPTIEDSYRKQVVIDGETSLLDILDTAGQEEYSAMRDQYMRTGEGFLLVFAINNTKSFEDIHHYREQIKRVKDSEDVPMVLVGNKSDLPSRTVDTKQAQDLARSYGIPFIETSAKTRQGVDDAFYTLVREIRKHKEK
Test: Inhibition of KRAS G12C and cRAF binding (AlphaScreen)
Details: KRAS G12C loaded with GMPPNP, cRaf RBD, 2 hours preincubation; read-out: Raf-1 RBD K-Ras IC50
Some molecules, each annotated with its measured IC50.

entry.smiles | IC50
N#CC[C@H]1CN(c2nc(OC[C@@]34CCCN3C[C@H](F)C4)nc3c(F)c(-c4cccc5cccc(Cl)c45)ncc23)CCN1C(=O)/C=C/CN1CC[C@@H]2COC[C@H]21 | < 10 nM
C[C@@H]1CN(C/C=C/C(=O)N2CCN(c3nc(OC[C@@]45CCCN4C[C@H](F)C5)nc4c(F)c(-c5cccc6cccc(F)c56)ncc34)C[C@@H]2CC#N)C[C@@H](C)O1 | 100 to 500 nM
Cn1cnc(/C=C/C(=O)N2CCN(c3nc(OC[C@@]45CCCN4C[C@H](F)C5)nc4c(F)c(-c5cccc6cccc(Cl)c56)ncc34)C[C@@H]2CC#N)n1 | > 500 nM
C[C@H]1CN(C/C=C/C(=O)N2CCN(c3nc(OC[C@@]45CCCN4C[C@H](F)C5)nc4c(F)c(-c5cccc(Cl)c5C(F)(F)F)ncc34)C[C@@H]2CC#N)C[C@H](C)O1 | 10 to 100 nM
Cc1nccc(/C=C/C(=O)N2CCN(c3nc(OC[C@@]45CCCN4C[C@H](F)C5)nc4c(F)c(-c5cccc6cccc(Cl)c56)ncc34)C[C@@H]2CC#N)n1 | < 10 nM

Exercise: Name the recorded IC50 of the molecule listed here: CC(C)(C)c1noc(/C=C/C(=O)N2CCN(c3nc(OCC45CCCN4CCC5)nc4c3CCN(c3cccc5cccc(Cl)c35)C4)C[C@@H]2CC#N)n1
Key: 10 to 100 nM

Exercise: Report IC50, nothing else, for this molecule: N#CC[C@H]1CN(c2nc(OC[C@@]34CCCN3C[C@H](F)C4)nc3c(F)c(-c4cccc5cccc(Cl)c45)ncc23)CCN1C(=O)/C=C/CN1CC2CCC(C1)O2
Key: < 10 nM

Exercise: Give the reported value of IC50 for this record: CCc1noc(/C=C/C(=O)N2CCN(c3nc(OCC45CCCN4CCC5)nc4c3CCN(c3cccc5cccc(Cl)c35)C4)C[C@@H]2CC#N)n1
Key: > 500 nM

Exercise: Please list IC50 recorded for the molecule CC(C)c1noc(/C=C/C(=O)N2CCN(c3nc(OCC45CCCN4CCC5)nc4c3CCN(c3cccc5ccc(F)c(Cl)c35)C4)C[C@@H]2CC#N)n1
Key: 10 to 100 nM

Exercise: Annotate the molecule CC(C)(C)c1noc(/C=C/C(=O)N2CCN(c3nc(OC[C@@]45CCCN4C[C@H](F)C5)nc4c(F)c(-c5cccc6cccc(Cl)c56)ncc34)C[C@@H]2CC#N)n1 with its measured IC50.
Key: 100 to 500 nM
